Data provenance is paper PMC5750218.

test system: Vancomycin-intermediate S. aureus NRS1; test: microbe, parasite or virus in culture; conditions: Vancomycin-intermediate NRS1
PARAMETER: MIC VISA (µg/mL)

>>> observed_value("CCCCCCCCCCC(=O)N[C@@H](CCCCN)C(=O)N[C@@H](CCCCN)C(=O)N[C@@H](CCCCN)C(=O)N[C@@H](CCCCNC(=O)[C@H]1NC(=O)[C@H]2NC(=O)[C@H](NC(=O)[C@@H]3NC(=O)[C@H](CC(N)=O)NC(=O)[C@H](NC(=O)[C@@H](CC(C)C)NC)[C@H](O)c4ccc(c(Cl)c4)Oc4cc3cc(c4O[C@@H]3O[C@H](CO)[C@@H](O)[C@H](O)[C@H]3O[C@H]3C[C@](C)(N)[C@H](O)[C@H](C)O3)Oc3ccc(cc3Cl)[C@H]2O)c2ccc(O)c(c2)-c2c(O)cc(O)cc21)C(=O)O [Compound 18, nC10CO-KKK-K(Vancomycin)-OH]")
0.5

====

Test system: Bacillus subtilis ATCC 6633
Test: microbe, parasite or virus in culture
Assay type: cell-based
Details: ATCC 6633, 48 h
Procedure: All compounds were dissolved in H2O. Bacillus subtilis ATCC® 6633™ NRS-231 was cultured in MHB at 37 °C for 48 h. A sample of each culture was then diluted 40-fold in fresh MHB and incubated at 37 °C for 18 h. Compounds were added to each row of 96-well NBS plates (NBS, Corning 3641), in duplicate. The tripeptide N,N΄-diacetyl-L-Lys-D-Ala-D-Ala was serially diluted twofold across the compound-containing wells from 6400 to 3 µg mL^−1. […]
PARAMETER: MIC (µg/mL)

>>> observed_value("CN[C@H](CC(C)C)C(=O)N[C@H]1C(=O)N[C@@H](CC(N)=O)C(=O)N[C@H]2C(=O)N[C@H]3C(=O)N[C@H](C(=O)N[C@H](C(=O)NCCCC[C@H](NC(=O)[C@H](CCCCN)NC(=O)[C@H](CCCCN)NC(=O)c4ccc(Oc5ccccc5)cc4)C(=O)O)c4cc(O)cc(O)c4-c4cc3ccc4O)[C@H](O)c3ccc(c(Cl)c3)Oc3cc2cc(c3O[C@@H]2O[C@H](CO)[C@@H](O)[C@H](O)[C@H]2O[C@H]2C[C@](C)(N)[C@H](O)[C@H](C)O2)Oc2ccc(cc2Cl)[C@H]1O")
0.06

====

experiment: In vivo pharmacokinetics in mice; conditions: male, CD1, plasma; mouse, IV 2 mg kg-1
PARAMETER: half-life (min)

>>> observed_value("CN[C@H](CC(C)C)C(=O)N[C@H]1C(=O)N[C@@H](CC(N)=O)C(=O)N[C@H]2C(=O)N[C@H]3C(=O)N[C@H](C(=O)N[C@H](C(=O)O)c4cc(O)cc(O)c4-c4cc3ccc4O)[C@H](O)c3ccc(c(Cl)c3)Oc3cc2cc(c3O[C@@H]2O[C@H](CO)[C@@H](O)[C@H](O)[C@H]2O[C@H]2C[C@](C)(N)[C@H](O)[C@H](C)O2)Oc2ccc(cc2Cl)[C@H]1O")
38.4

====

tested on: Bacillus subtilis ATCC 6633; assay: microbe, parasite or virus in culture; format: cell-based; details: ATCC 6633, 48 h
PARAMETER: MIC (ng/mL)

>>> observed_value("CCCCCCCCCCC(=O)N[C@@H](CCCCNC(=O)[C@H]1NC(=O)[C@H]2NC(=O)[C@H](NC(=O)[C@@H]3NC(=O)[C@H](CC(N)=O)NC(=O)[C@H](NC(=O)[C@@H](CC(C)C)NC)[C@H](O)c4ccc(c(Cl)c4)Oc4cc3cc(c4O[C@@H]3O[C@H](CO)[C@@H](O)[C@H](O)[C@H]3O[C@H]3C[C@](C)(N)[C@H](O)[C@H](C)O3)Oc3ccc(cc3Cl)[C@H]2O)c2ccc(O)c(c2)-c2c(O)cc(O)cc21)C(=O)O [Compound 20, nC10CO-K(Vancomycin)-OH]")
30
>>> observed_value("CN[C@H](CC(C)C)C(=O)N[C@H]1C(=O)N[C@@H](CC(N)=O)C(=O)N[C@H]2C(=O)N[C@H]3C(=O)N[C@H](C(=O)N[C@H](C(=O)NCCCC[C@H](NC(=O)[C@H](CCCCN)NC(=O)[C@H](CCCCN)NC(=O)[C@H](CCCCN)NC(=O)c4ccc(Oc5ccccc5)cc4)C(=O)O)c4cc(O)cc(O)c4-c4cc3ccc4O)[C@H](O)c3ccc(c(Cl)c3)Oc3cc2cc(c3O[C@@H]2O[C@H](CO)[C@@H](O)[C@H](O)[C@H]2O[C@H]2C[C@](C)(N)[C@H](O)[C@H](C)O2)Oc2ccc(cc2Cl)[C@H]1O [Compound 40, POB-KKK-K-(Vancomycin)-OH]")
30
